B1: PTPRD (parent)
chain: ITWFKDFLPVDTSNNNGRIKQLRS

Variants of: B1
assay.explanation: protein stability index of a GFP-peptide fusion (GPS, HEK-293T) (PSI 1-6); higher = more stable;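 further: lentivirally expressed fusions sorted by FACS into six bins by GFP to DsRed ratio, PSI derived from sequencing read proportions per bin multiplied by bin number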
condition.set: c terminus: a fixed tail appended
Reported protein stability index values are given for each entry in this list.

Sample answers from the record:
ITWFKDFTPVDTSNNNGRIKQLRS [L8T]
2.23
ITWWKDFLPVDTSNNNGRIKQLRS [F4W]
2.02
ITWFKDFLPVDTSNYNGRIKQLRS [N15Y]
1.87
ITWFKDFLPVDTSNNNERIKQLRS [G17E]
2.62
ITWFKDFLPVDTSQNNGRIKQLRS [N14Q]
2.02

Please look up its protein stability index: ITWFKDFLPVDTSNNSGRIKQLRS [N16S]
1.98

Dear colleague, I am looking for the recorded protein stability index of the following variant: ITWFKDFLPVDTSNNNGRIKQLTS [R23T]
2.04

Could you share which protein stability index value was measured for ITWFKDFLPVDTSNNNIRIKQLRS [G17I] ?
1.53
